The measured values listed here are drawn from patent US20210324080A1.

# Target or system: T1, CTLA-4-hFc (immunogen A; hFc-labeled CTLA-4 extracellular domain protein) (human, UniProt P16410 36-161)
# T1 construct: range 36-161; Made in HEK293 cells, purified on protein A; also called CLTA-4-hFc; CTLA-4 protein; not shown: human IgG Fc fragment (hFc) of the pCpC vector
# T1 sequence (looked up): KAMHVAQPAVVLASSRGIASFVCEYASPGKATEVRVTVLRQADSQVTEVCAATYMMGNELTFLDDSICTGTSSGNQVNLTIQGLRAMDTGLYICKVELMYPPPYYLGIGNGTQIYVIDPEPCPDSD
# Test protocol: blocking assay, CTLA-4 protein, competitor B7.1
// reported % Block at 1.6 nM per item
Reported endpoint: % Block at 1.6 nM (%)

1. 92C8B6 fully human CTLA-4 antibody (human IgG1, kappa) (antibody, V domains shown, also called mAb42; mAb042) VH: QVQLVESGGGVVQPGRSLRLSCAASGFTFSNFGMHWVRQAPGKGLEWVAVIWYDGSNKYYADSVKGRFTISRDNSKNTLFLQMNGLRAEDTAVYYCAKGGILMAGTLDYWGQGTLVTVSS VL: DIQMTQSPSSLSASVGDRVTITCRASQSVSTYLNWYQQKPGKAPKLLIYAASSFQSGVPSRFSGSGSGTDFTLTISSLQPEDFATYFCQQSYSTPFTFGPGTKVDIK | 93.7
2. 97A8D1 fully human CTLA-4 antibody (human IgG1, kappa) (antibody, V domains shown, also called mAb49; mAb049) VH: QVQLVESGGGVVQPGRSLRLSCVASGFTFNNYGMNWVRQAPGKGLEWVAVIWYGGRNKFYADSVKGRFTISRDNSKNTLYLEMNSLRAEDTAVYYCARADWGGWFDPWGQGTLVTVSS VL: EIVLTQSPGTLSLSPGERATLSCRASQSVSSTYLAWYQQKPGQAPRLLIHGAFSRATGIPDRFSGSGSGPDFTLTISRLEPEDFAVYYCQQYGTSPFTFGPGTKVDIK | 90.6
3. 40C4C6 fully human CTLA-4 antibody (human IgG1, kappa) (antibody, V domains shown, also called mAb09; mAb009) VH: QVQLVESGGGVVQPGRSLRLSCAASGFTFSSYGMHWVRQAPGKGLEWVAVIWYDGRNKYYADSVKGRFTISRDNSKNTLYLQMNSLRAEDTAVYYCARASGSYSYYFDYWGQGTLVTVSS VL: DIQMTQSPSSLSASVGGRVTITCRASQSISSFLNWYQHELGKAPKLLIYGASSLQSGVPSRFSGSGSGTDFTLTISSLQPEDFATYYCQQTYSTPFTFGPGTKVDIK | 98.1
4. 31C12F3 fully human CTLA-4 antibody (human IgG1, kappa) (antibody, V domains shown, also called mAb010) VH: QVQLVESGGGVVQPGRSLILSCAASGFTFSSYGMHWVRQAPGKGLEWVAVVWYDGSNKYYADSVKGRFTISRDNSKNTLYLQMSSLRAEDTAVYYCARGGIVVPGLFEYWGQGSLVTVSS VL: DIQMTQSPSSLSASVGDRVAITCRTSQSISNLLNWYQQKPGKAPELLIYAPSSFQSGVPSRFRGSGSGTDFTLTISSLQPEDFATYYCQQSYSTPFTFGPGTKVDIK | 95.9
